assay: In vivo pharmacokinetics of dabigatran etexilate preparations, subcutaneous (Experimental Example 5); details: male, Sprague-Dawley (SD), rat, plasma, sc, SD rats, solution 11.4 mg/kg, gels 80 mg/kg

molecule: CCCCCCOC(=O)NC(=N)c1ccc(NCc2nc3cc(C(=O)N(CCC(=O)OCC)c4ccccn4)ccc3n2C)cc1 [Solution group, dabigatran etexilate]
half-life, h: 5.21

----------
assay: Cmax of other small molecule drugs in plasma, preparation versus original drug solution (Experimental Example 7); type: in vivo; settings: Sprague-Dawley (SD), rat, sc, male SD rats, subcutaneous, drug in preparation made by prescription and method of Example 1, read-out: Phospholipid Span sustained release preparation Cmax
Where a name gives a salt, the structure may show the parent alone.
value_kind: Cmax (µg/mL)

molecule: COCCOC(=O)C1=C(C)NC(C)=C(C(=O)OC(C)C)C1c1cccc([N+](=O)[O-])c1 (centres unmarked) [Nimodipine]
value_reported: 1.51
//
molecule: CC(=O)Oc1ccccc1C(=O)O [Aspirin]
value_reported: 14.6
//
molecule: COc1cccc2c1C(=O)c1c(O)c3c(c(O)c1C2=O)C[C@@](O)(C(=O)CO)C[C@@H]3O[C@H]1C[C@H](N)[C@H](O)[C@H](C)O1 [Doxorubicin]
value_reported: 0.03
//
molecule: NC(=O)N1c2ccccc2C=Cc2ccccc21 [Carbamazepine]
value_reported: 4.46
//
molecule: CN(C)C(=N)N=C(N)N [Metformin hydrochloride]
value_reported: 0.82

----------
assay: In vivo pharmacokinetics of dabigatran etexilate preparations, subcutaneous (Experimental Example 5); details: male, Sprague-Dawley (SD), rat, plasma, sc, SD rats, solution 11.4 mg/kg, gels 80 mg/kg
value_kind: Tmax

molecule: CCCCCCOC(=O)NC(=N)c1ccc(NCc2nc3cc(C(=O)N(CCC(=O)OCC)c4ccccn4)ccc3n2C)cc1 [Solution group, dabigatran etexilate]
value_kind: Tmax
value_reported: 3.18 h

----------
assay: Blood concentration of 2,4-dinitrophenol in rats after subcutaneous dosing, surfactant comparison (Experimental Example 1); details: Sprague-Dawley (SD), rat, in vivo, sc, 12.5 mg/kg 2,4-dinitrophenol, LC-MS/MS, surfactant 3.5 g varied

molecule: O=[N+]([O-])c1ccc(O)c([N+](=O)[O-])c1 [Test Example4, 2,4-dinitrophenol]
measurement_unit: µg/mL
Cmax: 54.5

----------
assay: Cmax of other small molecule drugs in plasma, preparation versus original drug solution (Experimental Example 7); assay type: in vivo; details: Sprague-Dawley (SD), rat, in vivo, sc, male SD rats, subcutaneous, drug in preparation made by prescription and method of Example 1, read-out: Phospholipid Span sustained release preparation Cmax
value_kind: Cmax (ng/mL)

query_smiles: CCC1(c2ccccc2)C(=O)NC(=O)NC1=O
measurement_unit: ng/mL
value_reported: 2510

query_smiles: Cn1c(=O)c2[nH]cnc2n(C)c1=O
measurement_unit: ng/mL
value_reported: 1540

----------
experiment: Cmax of other small molecule drugs in plasma, preparation versus original drug solution (Experimental Example 7); assay type: in vivo; settings: male, Sprague-Dawley (SD), rat, sc, male SD rats, subcutaneous, original drug solution in water, ethanol or DMSO for injection, read-out: Original drug Cmax
value_kind: Cmax

molecule: C[C@@H]1C[C@H]2[C@@H]3CCC4=CC(=O)C=C[C@]4(C)[C@@]3(F)[C@@H](O)C[C@]2(C)[C@@]1(O)C(=O)CO [Dexamethasone]
value_kind: Cmax
value_reported: 530 ng/mL

----------
assay: In vivo pharmacokinetics of dabigatran etexilate preparations, subcutaneous (Experimental Example 5); conditions: male, Sprague-Dawley (SD), rat, plasma, sc, SD rats, solution 11.4 mg/kg, gels 80 mg/kg
value_kind: AUC(0-t) (µg·h/mL)

compound: CCCCCCOC(=O)NC(=N)c1ccc(NCc2nc3cc(C(=O)N(CCC(=O)OCC)c4ccccn4)ccc3n2C)cc1 [Solution group, dabigatran etexilate]
value_reported: 1.97

----------
assay: In vivo pharmacokinetics of dabigatran etexilate preparations, subcutaneous (Experimental Example 5); conditions: male, Sprague-Dawley (SD), rat, plasma, sc, SD rats, solution 11.4 mg/kg, gels 80 mg/kg
value_kind: Cmax (ng/mL)

compound: CCCCCCOC(=O)NC(=N)c1ccc(NCc2nc3cc(C(=O)N(CCC(=O)OCC)c4ccccn4)ccc3n2C)cc1 [Solution group, dabigatran etexilate]
value_reported: 244

----------
experiment: In vivo pharmacokinetics of 2,4-dinitrophenol preparations, subcutaneous (Experimental Example 4); set-up: species or system male SD rats; settings: male, Sprague-Dawley (SD), rat, in vivo, sc, 12.5 mg/kg; rats, subcutaneous, same dose, 2,4-dinitrophenol
value_kind: Cmax

query_smiles: O=[N+]([O-])c1ccc(O)c([N+](=O)[O-])c1
value_reported: ~54.5 µg/mL
